- Tested on: biotinyl-Val-oxazolone
- Method summary: self-aminoacylation, catalytic enhancement (BVO) (fold over background); higher = more active; k-Seq, kA / k0A0; sequences stand for … in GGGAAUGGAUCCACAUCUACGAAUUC…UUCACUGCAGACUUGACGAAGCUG
This sample holds only a part of the variants without activity.
Param threshold (1) applies to self-aminoacylation; output rule met when value >= threshold, rule not met when value < threshold.

INSERT INTO measurements (construct_sequence, class_label) VALUES
  ('CCACACUUUAAGCGAUCGGUC [Fam1B.1 aminoacylation ribozyme variant]', 'rule met'),
  ('CUACUUCAAACAAUCGCCCUG [Fam1A.1 aminoacylation ribozyme variant]', 'rule met'),
  ('CUACUUCACACAAUCGGCCUG [Fam1A.1 aminoacylation ribozyme variant]', 'rule met'),
  ('CCACCCUUUAAGCAAUCGGUC [Fam1B.1 aminoacylation ribozyme variant]', 'rule met'),
  ('AUCCACCUAGGUCAUUGGGUG [Fam2.2 aminoacylation ribozyme variant]', 'rule met'),
  ('CUACUUCAAACAAUUGAUCUG [Fam1A.1 aminoacylation ribozyme variant]', 'rule not met'),
  ('AAGUUUGCUAAUAGUCACAAA [Fam3.1 aminoacylation ribozyme variant]', 'rule met'),
  ('AUUAACCUAGGUCGUCGGGUG [Fam2.2 aminoacylation ribozyme variant]', 'rule met'),
  ('AUCACCCUGGUCAUCGGGUGA [Fam2.1 aminoacylation ribozyme variant]', 'rule met'),
  ('UUUACCCUAGUCAUCGAGUGA [Fam2.1 aminoacylation ribozyme variant]', 'rule met'),
  ('CUACGUCAAACAAACGGUCUG [Fam1A.1 aminoacylation ribozyme variant]', 'rule met'),
  ('CCACACUUCCAGCAAUCGGAC [Fam1B.1 aminoacylation ribozyme variant]', 'rule met'),
  ('AUUACCCUGAUCAUCGAGUAA [Fam2.1 aminoacylation ribozyme variant]', 'rule met'),
  ('ACACACUUCAAGCAAUCGGUU [Fam1B.1 aminoacylation ribozyme variant]', 'rule met'),
  ('CUUCACCUAGGUAAUCGGGUG [Fam2.2 aminoacylation ribozyme variant]', 'rule met'),
  ('CCACACUGCAAGAAAUCGGUC [Fam1B.1 aminoacylation ribozyme variant]', 'rule met'),
  ('AUUGCCCUGGCCAUCGAGUGA [Fam2.1 aminoacylation ribozyme variant]', 'rule met'),
  ('CUACUUCAAACAAUAGGUCAG [Fam1A.1 aminoacylation ribozyme variant]', 'rule not met'),
  ('AUGCACCUGGGUCAUCGGGUG [Fam2.2 aminoacylation ribozyme variant]', 'rule met'),
  ('AAGGUUGCUAAUAGGCGCAAG [Fam3.1 aminoacylation ribozyme variant]', 'rule not met'),
  ('UAGUUUGCUAAAAGUCGCAAG [Fam3.1 aminoacylation ribozyme variant]', 'rule met'),
  ('AUUACCCUGGUGUUCGAGUGA [Fam2.1 aminoacylation ribozyme variant]', 'rule met'),
  ('CCACACUUCAAGCACUCGCUC [Fam1B.1 aminoacylation ribozyme variant]', 'rule met'),
  ('AUUCGCCUAGGUCUUCGGGUG [Fam2.2 aminoacylation ribozyme variant]', 'rule met'),
  ('UUUACCCUGGUCAUCGAGUCA [Fam2.1 aminoacylation ribozyme variant]', 'rule not met'),
  ('CCACACAUCAAGCACUCGGUC [Fam1B.1 aminoacylation ribozyme variant]', 'rule met'),
  ('AUUAGCCUGGUCCUCGAGUGA [Fam2.1 aminoacylation ribozyme variant]', 'rule met'),
  ('AUGCACCUCGGUCAUCGGGUG [Fam2.2 aminoacylation ribozyme variant]', 'rule met'),
  ('AUUACUCUGGUCAUCGCGUGA [Fam2.1 aminoacylation ribozyme variant]', 'rule met'),
  ('CGACGUCAAACAAUCGGUCUG [Fam1A.1 aminoacylation ribozyme variant]', 'rule met'),
  ('CUACUGCAACCAAUCGGUCUG [Fam1A.1 aminoacylation ribozyme variant]', 'rule not met'),
  ('CUACUUCAAACUAUCGGUCUA [Fam1A.1 aminoacylation ribozyme variant]', 'rule not met'),
  ('CUACUUCAUACAAUCGAUCUG [Fam1A.1 aminoacylation ribozyme variant]', 'rule not met'),
  ('CCACACGUCUAGCAAUCGGUC [Fam1B.1 aminoacylation ribozyme variant]', 'rule met'),
  ('CUACUUCAAACAAUCCUUCUG [Fam1A.1 aminoacylation ribozyme variant]', 'rule not met');
